src = ChEMBL document CHEMBL1126700

assay: Partition coefficient (logD7.4); settings: octanol/water, pH 7.4
property measured: logD

- query smiles: "CNC(=O)c1ccc(-c2noc(Cc3ccc4[nH]cc(CCN(C)C)c4c3)n2)cc1"
  property measured: "logD"
  numeric value: 1.45
- query smiles: "CC(=O)Nc1ccc(Cc2noc(-c3ccc4[nH]cc(CCN)c4c3)n2)cc1"
  property measured: "logD"
  numeric value: 0.48
- query smiles: "CCc1noc(-c2ccc3[nH]cc(CCN)c3c2)n1"
  property measured: "logD"
  numeric value: 0.13
- query smiles: "NCCc1c[nH]c2ccc(-c3nc(C4CC4)no3)cc12"
  property measured: "logD"
  numeric value: 0.6
- query smiles: "CC(=O)Nc1ccc(Cc2noc(Cc3ccc4[nH]cc(CCN)c4c3)n2)cc1"
  property measured: "logD"
  numeric value: -0.36
- query smiles: "NCCc1c[nH]c2ccc(-c3nc(N)no3)cc12"
  property measured: "logD"
  numeric value: -0.72

---

test: Partition coefficient (logD7.4); settings: octanol/water, pH 7.4
As shown below, each of these compounds has a reported logD value.
property measured: logD

- query smiles: "CN(C)CCc1c[nH]c2ccc(Cc3nc(Cc4ccc(NS(C)(=O)=O)cc4)no3)cc12"
  property measured: "logD"
  result: 0.5
- query smiles: "CN(C)CCc1c[nH]c2ccc(-c3nc(Cc4ccc(NS(C)(=O)=O)cc4)no3)cc12"
  property measured: "logD"
  result: 1.25
- query smiles: "Cc1noc(Cc2ccc3[nH]cc(CCN)c3c2)n1"
  property measured: "logD"
  result: -1.7
- query smiles: "NCCc1c[nH]c2ccc(CCc3nc(N)no3)cc12"
  property measured: "logD"
  result: -1.51

---

target: 5-hydroxytryptamine receptor 1D (Sus scrofa, UniProt P79400); assay: Displacement of radioligand [3H]5-HT binding to 5-hydroxytryptamine 1D receptor in pig caudate membrane
Sequence (P79400 whole entry): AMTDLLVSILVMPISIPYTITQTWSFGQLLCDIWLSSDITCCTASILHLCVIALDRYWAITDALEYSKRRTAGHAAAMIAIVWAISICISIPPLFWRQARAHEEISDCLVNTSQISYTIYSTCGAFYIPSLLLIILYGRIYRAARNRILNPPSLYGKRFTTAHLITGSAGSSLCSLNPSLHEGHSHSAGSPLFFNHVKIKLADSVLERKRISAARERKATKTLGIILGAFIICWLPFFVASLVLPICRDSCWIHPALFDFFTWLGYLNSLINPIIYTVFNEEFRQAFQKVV
pIC50: −log10 of the molar value.
As shown below, each of these compounds has a reported pIC50 value.
property measured: pIC50

- query smiles: "Cc1cnc(-c2ccc3[nH]cc(CCN(C)C)c3c2)o1"
  numeric value: 8.10
- query smiles: "CCc1noc(-c2ccc3[nH]cc(CCN)c3c2)n1"
  numeric value: 7.90
- query smiles: "CN(C)CCc1c[nH]c2ccc(CCc3nc(N)no3)cc12"
  numeric value: 7.90
- query smiles: "NCCc1c[nH]c2ccc(CCc3nc(N)no3)cc12"
  numeric value: 8.00
- query smiles: "CN(C)CCc1c[nH]c2ccc(-c3nc(Cc4ccccc4)no3)cc12"
  numeric value: 8.20
- query smiles: "CN(C)CCc1c[nH]c2ccc(Cc3nc(-c4ccc(NS(C)(=O)=O)cc4)no3)cc12"
  numeric value: 8.00
- query smiles: "Cc1noc(-c2ccc3[nH]cc(CCN)c3c2)n1"
  numeric value: 8.00
- query smiles: "NCCc1c[nH]c2ccc(-c3nc(Cc4ccccc4)no3)cc12"
  numeric value: 8.20
- query smiles: "CN(C)CCc1c[nH]c2ccc(CCc3nc(Cc4ccccc4)no3)cc12"
  numeric value: 7.90
